Form field: shrunken log2 fold change (one value per entry).
System: Escherichia coli TOP10
assay-name: shrunken log2 fold change of peptide-encoding DNA abundance (4.5 h post-induction vs induction); higher = less antimicrobial activity (less host growth inhibition)
condition-info: time post-induction: 4.5 h; library: site-saturation at positions 5, 18, 19, 20

residues: RRIRERPPRLPRPRPRPGNTPRP
measured-on: Escherichia coli TOP10
shrunken log2 fold change: -0.089
--
residues: RRIRCRPPRLPRPRPRPKVWPRP
measured-on: Escherichia coli TOP10
shrunken log2 fold change: 0.261
--
residues: RRIRNRPPRLPRPRPRPQNAPRP
measured-on: Escherichia coli TOP10
shrunken log2 fold change: -0.011
--
residues: RRIRHRPPRLPRPRPRPNHMPRP
measured-on: Escherichia coli TOP10
shrunken log2 fold change: 0.124
--
residues: RRIRWRPPRLPRPRPRPFQAPRP
measured-on: Escherichia coli TOP10
shrunken log2 fold change: -0.222
--
residues: RRIRVRPPRLPRPRPRPIHFPRP
measured-on: Escherichia coli TOP10
shrunken log2 fold change: -0.0962
--
residues: RRIRFRPPRLPRPRPRPNACPRP
measured-on: Escherichia coli TOP10
shrunken log2 fold change: -0.18
--
residues: RRIRCRPPRLPRPRPRPVYVPRP
measured-on: Escherichia coli TOP10
shrunken log2 fold change: -0.483
--
residues: RRIRYRPPRLPRPRPRPAERPRP
measured-on: Escherichia coli TOP10
shrunken log2 fold change: 0.0541
--
residues: RRIRPRPPRLPRPRPRPLMNPRP
measured-on: Escherichia coli TOP10
shrunken log2 fold change: -0.47
--
residues: RRIRLRPPRLPRPRPRPMKWPRP
measured-on: Escherichia coli TOP10
shrunken log2 fold change: 0.0101
--
residues: RRIRERPPRLPRPRPRPKSGPRP
measured-on: Escherichia coli TOP10
shrunken log2 fold change: -0.136

----------
Tested on: Escherichia coli TOP10
assay-name: shrunken log2 fold change of peptide-encoding DNA abundance (4.5 h post-induction vs induction); higher = less antimicrobial activity (less host growth inhibition)
condition-info: time post-induction: 4.5 h; library: site-saturation at positions 5, 18, 19, 20

residues: RRIRWRPPRLPRPRPRPLLWPRP
shrunken log2 fold change: 0.571

residues: RRIRSRPPRLPRPRPRPTTWPRP
shrunken log2 fold change: 0.053

residues: RRIRYRPPRLPRPRPRPICTPRP
shrunken log2 fold change: -0.376

residues: RRIRHRPPRLPRPRPRPTMPPRP
shrunken log2 fold change: -0.00312

residues: RRIRCRPPRLPRPRPRPFSFPRP
shrunken log2 fold change: -0.513

residues: RRIRERPPRLPRPRPRPAGTPRP
shrunken log2 fold change: 0.346

residues: RRIRPRPPRLPRPRPRPYSCPRP
shrunken log2 fold change: -0.183

----------
System: Escherichia coli TOP10
assay-name: shrunken log2 fold change of peptide-encoding DNA abundance (4.5 h post-induction vs induction); higher = less antimicrobial activity (less host growth inhibition)
condition-info: time post-induction: 4.5 h; library: site-saturation at positions 5, 18, 19, 20
property-measured: shrunken log2 fold change

residues: RRIRMRPPRLPRPRPRPPPVPRP
result: 1.65

residues: RRIRFRPPRLPRPRPRPWDFPRP
result: -0.0975

residues: RRIRQRPPRLPRPRPRPNAAPRP
result: 0.0416

residues: RRIRHRPPRLPRPRPRPWVYPRP
result: -0.125

residues: RRIRVRPPRLPRPRPRPNHMPRP
result: -0.0124

residues: RRIRSRPPRLPRPRPRPFRQPRP
result: 3.58

residues: RRIRKRPPRLPRPRPRPDQLPRP
result: 0.107

residues: RRIRARPPRLPRPRPRPKAEPRP
result: 0.821

residues: RRIRFRPPRLPRPRPRPEIPPRP
result: 0.163

residues: RRIRNRPPRLPRPRPRPICFPRP
result: -0.217

residues: RRIRTRPPRLPRPRPRPDMVPRP
result: -0.00822

residues: RRIRQRPPRLPRPRPRPLQLPRP
result: -0.126

residues: RRIRLRPPRLPRPRPRPVVDPRP
result: 0.117

residues: RRIRNRPPRLPRPRPRPGAHPRP
result: 0.0408

residues: RRIRLRPPRLPRPRPRPYIPPRP
result: -0.669

residues: RRIRYRPPRLPRPRPRPDNGPRP
result: -0.00114

residues: RRIRGRPPRLPRPRPRPTFHPRP
result: 0.366

residues: RRIRQRPPRLPRPRPRPFYIPRP
result: 0.0172

residues: RRIRFRPPRLPRPRPRPARNPRP
result: 0.0979

residues: RRIRMRPPRLPRPRPRPMKMPRP
result: 0.803

residues: RRIRQRPPRLPRPRPRPRRVPRP
result: 0.252

residues: RRIRGRPPRLPRPRPRPNHHPRP
result: 0.491

residues: RRIRGRPPRLPRPRPRPGSLPRP
result: 0.421

----------
System: Escherichia coli TOP10
assay-name: shrunken log2 fold change of peptide-encoding DNA abundance (4.5 h post-induction vs induction); higher = less antimicrobial activity (less host growth inhibition)
condition-info: time post-induction: 4.5 h; library: site-saturation at positions 5, 18, 19, 20
property-measured: shrunken log2 fold change

residues: RRIRFRPPRLPRPRPRPTACPRP
recorded-number: -0.118
--
residues: RRIRHRPPRLPRPRPRPSVRPRP
recorded-number: -0.158
--
residues: RRIRGRPPRLPRPRPRPDKPPRP
recorded-number: 0.415
--
residues: RRIRWRPPRLPRPRPRPASMPRP
recorded-number: -0.0478
--
residues: RRIRARPPRLPRPRPRPIRFPRP
recorded-number: 0.247
--
residues: RRIRYRPPRLPRPRPRPYYPPRP
recorded-number: -0.293
--
residues: RRIRKRPPRLPRPRPRPAEDPRP
recorded-number: 1.33
--
residues: RRIRMRPPRLPRPRPRPRFFPRP
recorded-number: 0.286
--
residues: RRIRMRPPRLPRPRPRPMMWPRP
recorded-number: 0.274
--
residues: RRIRTRPPRLPRPRPRPNAAPRP
recorded-number: 0.371

----------
Form field: shrunken log2 fold change (one value per entry).
Tested on: Escherichia coli TOP10
assay-name: shrunken log2 fold change of peptide-encoding DNA abundance (4.5 h post-induction vs induction); higher = less antimicrobial activity (less host growth inhibition)
condition-info: time post-induction: 4.5 h; library: site-saturation at positions 5, 18, 19, 20
property-measured: shrunken log2 fold change

residues: RRIRIRPPRLPRPRPRPMQFPRP
recorded-number: -0.343

residues: RRIRNRPPRLPRPRPRPSTGPRP
recorded-number: -0.266

residues: RRIRTRPPRLPRPRPRPDQVPRP
recorded-number: -0.272

residues: RRIRRRPPRLPRPRPRPWCVPRP
recorded-number: -0.032

residues: RRIRNRPPRLPRPRPRPVKHPRP
recorded-number: -0.23

residues: RRIRMRPPRLPRPRPRPAYCPRP
recorded-number: 0.075

residues: RRIRDRPPRLPRPRPRPQRNPRP
recorded-number: -0.0378

residues: RRIRKRPPRLPRPRPRPPRMPRP
recorded-number: 0.648

residues: RRIRHRPPRLPRPRPRPYTKPRP
recorded-number: 0.0561

residues: RRIRKRPPRLPRPRPRPAHPPRP
recorded-number: 0.711

residues: RRIRYRPPRLPRPRPRPPEAPRP
recorded-number: 0.0456

residues: RRIRTRPPRLPRPRPRPMGAPRP
recorded-number: -0.0569

residues: RRIRPRPPRLPRPRPRPSYYPRP
recorded-number: -0.721

residues: RRIRLRPPRLPRPRPRPMFMPRP
recorded-number: -0.208

residues: RRIRDRPPRLPRPRPRPCVGPRP
recorded-number: 0.97

residues: RRIRDRPPRLPRPRPRPLLAPRP
recorded-number: 1.2

residues: RRIRARPPRLPRPRPRPCETPRP
recorded-number: 0.00546

----------
Form field: shrunken log2 fold change (one value per entry).
Tested on: Escherichia coli TOP10;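 further: peptides expressed intracellularly from a pBAD plasmid library in pooled LB shake-flask culture, induced with 0.3% L-arabinose, DNA abundance read by NGS, three biological replicates, DESeq2 with apeglm shrinkage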
assay-name: shrunken log2 fold change of peptide-encoding DNA abundance (4.5 h post-induction vs induction); higher = less antimicrobial activity (less host growth inhibition)
condition-info: time post-induction: 4.5 h; library: site-saturation at positions 5, 18, 19, 20
property-measured: shrunken log2 fold change

residues: RRIRHRPPRLPRPRPRPFRRPRP
recorded-number: 0.0303

residues: RRIRARPPRLPRPRPRPQGCPRP
recorded-number: 0.03

residues: RRIRIRPPRLPRPRPRPWPFPRP
recorded-number: -0.259

residues: RRIRIRPPRLPRPRPRPVEKPRP
recorded-number: -0.126

residues: RRIRSRPPRLPRPRPRPAQQPRP
recorded-number: 0.409

residues: RRIRCRPPRLPRPRPRPKVCPRP
recorded-number: 0.0885

residues: RRIRDRPPRLPRPRPRPSPLPRP
recorded-number: -0.126

Taken from the supplement of paper PMC9112550.
